experiment: Mouse pharmacokinetics (oral gavage / intravenous); type: in vivo, mice; conditions: plasma; mouse, 30 mg/kg oral gavage
experimental_endpoint: Tmax (min)
Quick reminder: number only, in min, skip the unit.

*Q* Consider the molecule O=C1NCC2(CCCCC2)n2c1cc1cnc(Nc3ccc(N4CCC(N5CCOCC5)CC4)cn3)nc12 . State its measured Tmax.
*A* 30

*Q* Consider the molecule CN1CCN(c2ccc(Nc3ncc4cc5n(c4n3)C3(CCCCC3)CNC5=O)nc2)CC1 . State its measured Tmax.
*A* 60

*Q* Consider the molecule CC(C)N1CCN(c2ccc(Nc3ncc4cc5n(c4n3)C3(CCCCC3)CNC5=O)nc2)CC1 . State its measured Tmax.
*A* 60

*Q* Consider the molecule O=C1NCC2(CCCCC2)n2c1cc1cnc(Nc3ccc(N4CCNCC4)cn3)nc12 . State its measured Tmax.
*A* 30

====

Target: CDK4/CyclinD1 (Homo sapiens (Human), UniProt P11802)
Sequence (P11802 whole entry, species assumed): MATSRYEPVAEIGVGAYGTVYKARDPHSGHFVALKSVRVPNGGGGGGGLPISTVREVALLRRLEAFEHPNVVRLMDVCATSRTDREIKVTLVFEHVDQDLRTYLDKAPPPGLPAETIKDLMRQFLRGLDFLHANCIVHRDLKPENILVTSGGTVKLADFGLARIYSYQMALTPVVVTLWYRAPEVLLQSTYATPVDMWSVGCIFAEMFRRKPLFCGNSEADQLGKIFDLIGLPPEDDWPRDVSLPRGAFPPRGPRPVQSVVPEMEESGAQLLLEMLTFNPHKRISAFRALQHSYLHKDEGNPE
Sequence (P24385 whole entry partner, species assumed): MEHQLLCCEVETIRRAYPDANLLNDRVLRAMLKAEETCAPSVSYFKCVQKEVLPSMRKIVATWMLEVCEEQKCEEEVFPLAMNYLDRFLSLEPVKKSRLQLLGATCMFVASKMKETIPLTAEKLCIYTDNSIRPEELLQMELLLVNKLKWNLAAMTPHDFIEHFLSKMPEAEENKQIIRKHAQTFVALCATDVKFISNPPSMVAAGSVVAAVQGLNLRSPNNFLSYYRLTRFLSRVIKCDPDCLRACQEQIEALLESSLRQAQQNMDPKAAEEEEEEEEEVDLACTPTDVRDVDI
Assay: CDK4/CyclinD1 kinase assay (Nanosyn, Caliper microfluidic)
Format: biochemical
Conditions: Table 3; read-out: CDK4/CycD1 IC50
Experimental: Selected compounds disclosed herein were tested in CDK4/cyclinD1, CDK6/CycD3 CDK2/CycA and CDK2/cyclinE kinase assays by Nanosyn (Santa Clara, Calif.) to determine their inhibitory effect on these CDKs. The assays were performed using microfluidic kinase detection technology (Caliper Assay Platform). The compounds were tested in 12-point dose-response format in singlicate at Km for ATP. […]
experimental_endpoint: pIC50
Value format note: pIC50 is -log10 of concentration (mol/L); just state the number.

*Q* Consider the compound CC(C)N1CCN(c2ccc(Nc3ncc4cc5n(c4n3)C3(CCCCC3)CNC5=O)nc2)CC1 . State its measured pIC50.
*A* 8.97

====

biological target: CDK2/CyclinE (Homo sapiens (Human), UniProt P24941); assay: CDK2/CyclinE kinase assay (Nanosyn, Caliper microfluidic); assay type: biochemical; settings: Table 3; read-out: CDK2/CycE IC50
experimental_endpoint: IC50 (nM)
Quick reminder: number only, in nM, skip the unit.

*Q* Consider the compound CC(C)N1CCN(c2ccc(Nc3ncc4cc5n(c4n3)C3(CCCCC3)CNC5=O)nc2)CC1 [Compound GG] . State its measured IC50.
*A* 3580

*Q* Consider the compound O=C1NCC2(CCCCC2)n2c1cc1cnc(Nc3ccc(N4CCC(N5CCOCC5)CC4)cn3)nc12 [Compound U] . State its measured IC50.
*A* 1460

====

target: CDK2/CyclinE (Homo sapiens (Human), UniProt P24941); experiment: CDK2/CyclinE kinase assay (Nanosyn, Caliper microfluidic); format: biochemical; settings: Table 2; read-out: CDK2/CycE IC50
experimental_endpoint: IC50

*Q* Look up and report IC50, with CDK2/CyclinE (Homo sapiens (Human), UniProt P24941) as system, for CCN(CC)C1CCN(C(=O)c2ccc(Nc3ncc4cc5n(c4n3)C3(CCCCC3)CNC5=O)nc2)C1 (centres unmarked)
*A* 0.288 µM

*Q* Look up and report IC50, with CDK2/CyclinE (Homo sapiens (Human), UniProt P24941) as system, for C[C@H]1CN(c2ccc(Nc3ncc4cc5n(c4n3)C3(CCCCC3)CNC5=O)nc2)CCN1
*A* 1.76 µM

*Q* Look up and report IC50, with CDK2/CyclinE (Homo sapiens (Human), UniProt P24941) as system, for C[C@H](O)CN1CCN(c2ccc(Nc3ncc4cc5n(c4n3)C3(CCCCC3)CNC5=O)nc2)C[C@@H]1C
*A* 1.92 µM

*Q* Look up and report IC50, with CDK2/CyclinE (Homo sapiens (Human), UniProt P24941) as system, for CCN(CC)C1CCN(c2ccc(Nc3ncc4cc5n(c4n3)C3(CCCC3)CNC5=O)nc2)CC1
*A* 1.62 µM

*Q* Look up and report IC50, with CDK2/CyclinE (Homo sapiens (Human), UniProt P24941) as system, for CC(C)C[C@@H]1CNC(=O)c2cc3cnc(Nc4ccc(N5CCNCC5)cn4)nc3n21
*A* 2.5 µM

*Q* Look up and report IC50, with CDK2/CyclinE (Homo sapiens (Human), UniProt P24941) as system, for CC(C)(O)CN1CCN(c2ccc(Nc3ncc4cc5n(c4n3)C3(CCCC3)CNC5=O)nc2)CC1
*A* 2.95 µM

*Q* Look up and report IC50, with CDK2/CyclinE (Homo sapiens (Human), UniProt P24941) as system, for CN(C)C1CCN(c2ccc(Nc3ncc4cc5n(c4n3)C3(CCCC3)CNC5=O)nn2)CC1
*A* 3.03 µM

*Q* Look up and report IC50, with CDK2/CyclinE (Homo sapiens (Human), UniProt P24941) as system, for CC(C)N1CCN(c2ccc(Nc3ncc4cc5n(c4n3)C3(CCCCC3)CNC5=O)nn2)CC1
*A* 1.26 µM
